- targetOfAssay: c-jun NH2-terminal kinase
- methodDescription: purified kinase assay, c-jun NH2-terminal kinase
pIC50: −log10 of the molar value.
Listed molecules paired with reported pIC50
quantityKind: pIC50

>>> df
                       smilesrepresentation  quantitykind  result
0  CC(C)[C@H](CO)Nc1nc(Nc2ccc(C(=O)O)c(Cl)c2)c2ncn(C(C)C)c2n1         pIC50  < 5.00
1  CC(C)[C@H](CO)Nc1nc(Nc2cccc(Cl)c2)c2ncn(C(C)C)c2n1         pIC50  < 6.00

###

pIC50: −log10 of the molar value.
Reported values: pIC50 for cAMP-dependent protein kinase (Homo sapiens, UniProt P17612), one per item.
quantityKind: pIC50

>>> print(df.to_string())
                                   compound  quantitativeresult
0  CC(C)[C@H](CO)Nc1nc(Nc2cccc(Cl)c2)c2ncn(C(C)C)c2n1 [purvalanol A]                5.05
1  CC(C)[C@H](CO)Nc1nc(Nc2ccc(C(=O)O)c(Cl)c2)c2ncn(C(C)C)c2n1 [purvalanol B]                5.42

###

- targetOfAssay: Protein kinase C (Homo sapiens)
- methodDescription: purified kinase assay, Protein kinase C (Table 1 r15)
- experimentalParameters: Table 1 r15, isoform symbol not given
quantityKind: IC50

>>> print(df.to_string())
                       smilesrepresentation                    targetofassay  quantitykind   result
0  CC(C)[C@H](CO)Nc1nc(Nc2cccc(Cl)c2)c2ncn(C(C)C)c2n1  Protein kinase C (Homo sapiens)          IC50  > 10 µM

###

- targetOfAssay: cdk5-p35 (Homo sapiens, UniProt Q00535)
- Sequence (Q00535 whole entry): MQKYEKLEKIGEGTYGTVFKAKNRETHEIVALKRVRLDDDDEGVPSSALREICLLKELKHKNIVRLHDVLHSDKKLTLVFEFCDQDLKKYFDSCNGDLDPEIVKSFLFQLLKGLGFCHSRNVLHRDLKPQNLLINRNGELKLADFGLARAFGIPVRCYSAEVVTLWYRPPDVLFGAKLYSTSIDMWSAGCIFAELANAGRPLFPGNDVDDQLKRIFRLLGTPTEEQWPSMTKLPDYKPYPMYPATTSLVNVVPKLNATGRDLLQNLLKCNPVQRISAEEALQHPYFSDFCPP
- Sequence (Q15078 whole entry partner): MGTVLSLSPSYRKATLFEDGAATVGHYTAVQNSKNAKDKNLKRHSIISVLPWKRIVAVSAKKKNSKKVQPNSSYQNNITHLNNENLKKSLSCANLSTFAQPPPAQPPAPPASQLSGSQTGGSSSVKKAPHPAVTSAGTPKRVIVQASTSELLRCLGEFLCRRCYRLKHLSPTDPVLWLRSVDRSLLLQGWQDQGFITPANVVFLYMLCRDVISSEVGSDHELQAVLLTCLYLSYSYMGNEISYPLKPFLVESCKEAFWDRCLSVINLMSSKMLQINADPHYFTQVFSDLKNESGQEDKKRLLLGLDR
pIC50: −log10 of the molar value.
quantityKind: pIC50

>>> print(df.to_string())
                       smilesrepresentation                            targetofassay  quantitativeresult
0  CC(C)[C@H](CO)Nc1nc(Nc2cccc(Cl)c2)c2ncn(C(C)C)c2n1  cdk5-p35 (Homo sapiens, UniProt Q00535)                7.12

###

- targetOfAssay: Protein kinase C (Homo sapiens)
- methodDescription: purified kinase assay, Protein kinase C (Table 1 r20)
- experimentalParameters: Table 1 r20, isoform symbol not given
pIC50: −log10 of the molar value.
quantityKind: pIC50

>>> print(df.to_string())
                       smilesrepresentation  quantitykind  result
0  CC(C)[C@H](CO)Nc1nc(Nc2cccc(Cl)c2)c2ncn(C(C)C)c2n1         pIC50  < 4.00

###

- targetOfAssay: Protein kinase C2 (Homo sapiens)
- Sequence (P05771 1-673 isoform P05771-2): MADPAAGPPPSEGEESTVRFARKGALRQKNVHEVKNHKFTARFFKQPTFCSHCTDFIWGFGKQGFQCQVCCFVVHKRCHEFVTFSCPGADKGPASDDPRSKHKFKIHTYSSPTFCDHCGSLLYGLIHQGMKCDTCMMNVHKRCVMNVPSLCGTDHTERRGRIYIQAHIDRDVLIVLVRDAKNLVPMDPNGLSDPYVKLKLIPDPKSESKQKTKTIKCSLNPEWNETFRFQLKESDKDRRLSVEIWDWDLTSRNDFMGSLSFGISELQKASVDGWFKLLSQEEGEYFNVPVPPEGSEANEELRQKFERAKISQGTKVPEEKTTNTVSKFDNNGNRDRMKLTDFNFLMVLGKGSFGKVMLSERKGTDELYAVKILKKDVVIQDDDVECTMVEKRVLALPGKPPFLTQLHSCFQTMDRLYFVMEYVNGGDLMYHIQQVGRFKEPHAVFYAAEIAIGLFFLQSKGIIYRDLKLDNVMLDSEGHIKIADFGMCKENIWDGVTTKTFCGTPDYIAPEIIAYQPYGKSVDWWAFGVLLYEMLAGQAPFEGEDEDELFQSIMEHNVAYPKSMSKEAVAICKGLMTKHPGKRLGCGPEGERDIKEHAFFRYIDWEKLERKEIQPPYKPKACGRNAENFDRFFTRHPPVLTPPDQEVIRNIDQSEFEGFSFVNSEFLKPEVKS
pIC50: −log10 of the molar value.
quantityKind: pIC50

>>> print(df.to_string())
                                   molecule                     targetofassay  result
0  CC(C)[C@H](CO)Nc1nc(Nc2cccc(Cl)c2)c2ncn(C(C)C)c2n1 [purvalanol A]  Protein kinase C2 (Homo sapiens)  < 5.00

###

- targetOfAssay: cGMP-dependent protein kinase (Homo sapiens, UniProt Q13976)
- Sequence (Q13976 whole entry): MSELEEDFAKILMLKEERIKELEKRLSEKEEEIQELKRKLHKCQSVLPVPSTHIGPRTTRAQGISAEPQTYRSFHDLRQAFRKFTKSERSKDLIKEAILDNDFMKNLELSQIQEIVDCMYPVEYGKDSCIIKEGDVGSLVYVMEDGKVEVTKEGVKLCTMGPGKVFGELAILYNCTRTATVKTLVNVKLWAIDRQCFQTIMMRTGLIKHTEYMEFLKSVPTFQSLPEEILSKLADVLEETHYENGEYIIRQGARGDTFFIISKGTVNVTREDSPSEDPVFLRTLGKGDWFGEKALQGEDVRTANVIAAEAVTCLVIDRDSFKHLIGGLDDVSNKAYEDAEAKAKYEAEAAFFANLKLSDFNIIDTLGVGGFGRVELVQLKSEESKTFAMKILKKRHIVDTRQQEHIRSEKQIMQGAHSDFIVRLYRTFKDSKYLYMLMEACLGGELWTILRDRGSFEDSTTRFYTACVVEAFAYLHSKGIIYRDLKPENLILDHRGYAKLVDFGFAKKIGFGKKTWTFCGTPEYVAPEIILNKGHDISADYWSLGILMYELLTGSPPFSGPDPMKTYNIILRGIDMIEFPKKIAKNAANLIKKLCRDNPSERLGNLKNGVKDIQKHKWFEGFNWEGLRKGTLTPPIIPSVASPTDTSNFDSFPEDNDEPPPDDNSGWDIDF
- methodDescription: purified kinase assay, cGMP-dependent protein kinase
- Type: biochemical
pIC50: −log10 of the molar value.
quantityKind: pIC50

                                   molecule  result
0  CC(C)[C@H](CO)Nc1nc(Nc2cccc(Cl)c2)c2ncn(C(C)C)c2n1 [purvalanol A]  < 5.00
